B1: library; a variant is named by its letters at N, in order (parent)
chain: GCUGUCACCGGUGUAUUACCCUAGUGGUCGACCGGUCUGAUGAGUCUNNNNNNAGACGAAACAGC

Variants of: B1
Assay: normalized RNA/DNA level without ligand (relative to sTRSVctl = 100) (log10 (% of sTRSVctl)); ligand: hypoxanthine (xanthine aptamer); higher = less ribozyme self-cleavage, higher mRNA level
Details: HEK293T, reporter: mCherry (pCS4076), ligand present: no
normalized RNA/DNA level without ligand (log10) reference

Consider the following illustrative entries.
Query string: I would be grateful if you could share the reported normalized RNA/DNA level without ligand (log10) for GGGCCA .
Result string: 1.99

Query string: Now consider GUAGCU .
Result string: 1.88

Query string: Now consider CACGAA .
Result string: 1.72

Query string: Now consider GGUAAU .
Result string: 1.79

Query string: Now consider AGCCUC .
Result string: 1.96

Others:
Query string: I would be grateful if you could share the reported normalized RNA/DNA level without ligand (log10) for UGUAAA .
Result string: 1.8

Query string: Now consider AUGAAU .
Result string: 1.66

Query string: Now consider UACUUA .
Result string: 1.88

Query string: Now consider CGACCG .
Result string: 1.92

Query string: Now consider GCACUA .
Result string: 1.81

Query string: Now consider GACAAC .
Result string: 1.73

Query string: Now consider CCGGCG .
Result string: 1.72

Query string: Now consider AGUUAU .
Result string: 1.8

Query string: Now consider UCCCAC .
Result string: 1.56

Query string: Now consider GGGGGG .
Result string: 1.65

Query string: Now consider ACUCUU .
Result string: 1.84

Query string: Now consider UUGAGU .
Result string: 1.75

Query string: Now consider GAAGCA .
Result string: 1.76

Query string: Now consider CUCGCC .
Result string: 1.88

Query string: Now consider AUCAAA .
Result string: 1.79

Query string: Now consider AGCUUG .
Result string: 1.59

Query string: Now consider CCGCGU .
Result string: 1.71

Query string: Now consider UUCCGA .
Result string: 1.94

All values here come from the supplement of paper PMC6757056.
